Each entry below lists one item and its recorded pKd value.
- measured on: T1, C57BL/6 mouse SIRP-α D1 domain (mouse (C57BL/6 strain), UniProt P97797 32-148)
- T1 sequence: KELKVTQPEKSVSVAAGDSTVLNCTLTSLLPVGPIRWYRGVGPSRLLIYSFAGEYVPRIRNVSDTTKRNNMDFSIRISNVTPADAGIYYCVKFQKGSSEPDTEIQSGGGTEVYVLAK
- protocol notes: SPR, antibody immobilised on GLC chip
pKd: −log10 of the molar value.
parameter measured: pKd

{"binder": "antibody 136 variant MutRv_S22T/mut (antibody, human IgG1, V domains shown, Human IgG1 with L234A/L235A/G237A/N297A; Labels are light chain/heavy chain) VH: EVQLVESGGGVVQPGRSLRLSCAASGFTFSSYDVNWVRQAPGKGLEWVSLISGSGEIIYYADSVKGRFTISRDNSKNTLYLQMNSLRAEDTAVYYCAKENNRYRFFDDWGQGTLVTVSS VL: EIVLTQSPGTLSLSPGERATLTCRASQSVYTYLAWYQQKPGQAPRLLIYGASSRATGIPDRFSGSGSGTEFTLTISSLQSEDFAVYYCQQYYDRPPLTFGGGTKVEIK", "recorded result": 7.88}
{"binder": "antibody 136 variant MutRv_Q38E/mut (antibody, human IgG1, V domains shown, Human IgG1 with L234A/L235A/G237A/N297A; Labels are light chain/heavy chain) VH: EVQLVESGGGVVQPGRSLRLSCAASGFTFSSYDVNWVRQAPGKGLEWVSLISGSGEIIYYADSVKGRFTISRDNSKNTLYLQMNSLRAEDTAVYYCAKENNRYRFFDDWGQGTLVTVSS VL: EIVLTQSPGTLSLSPGERATLSCRASQSVYTYLAWYQEKPGQAPRLLIYGASSRATGIPDRFSGSGSGTEFTLTISSLQSEDFAVYYCQQYYDRPPLTFGGGTKVEIK", "recorded result": 7.48}
{"binder": "antibody 136 variant Mut/mut (antibody, human IgG1, V domains shown, Human IgG1 with L234A/L235A/G237A/N297A; Labels are light chain/heavy chain) VH: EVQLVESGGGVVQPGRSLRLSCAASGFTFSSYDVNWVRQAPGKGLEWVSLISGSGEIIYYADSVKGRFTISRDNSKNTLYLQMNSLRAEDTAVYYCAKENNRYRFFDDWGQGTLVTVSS VL: EIVLTQSPGTLSLSPGERATLSCRASQSVYTYLAWYQQKPGQAPRLLIYGASSRATGIPDRFSGSGSGTEFTLTISSLQSEDFAVYYCQQYYDRPPLTFGGGTKVEIK", "recorded result": 7.67}
